binders and their reported fold difference in affinity vs original
# TESTED_TARGET: binding partner of C5A (XPA23)
# ASSAY_INFO: Biacore K-off
Could you give me the number in fold? Just the number is fine.

See these solved cases before continuing.
BINDER: C5A (XPA23) VL H49L (antibody, V domains shown) VH: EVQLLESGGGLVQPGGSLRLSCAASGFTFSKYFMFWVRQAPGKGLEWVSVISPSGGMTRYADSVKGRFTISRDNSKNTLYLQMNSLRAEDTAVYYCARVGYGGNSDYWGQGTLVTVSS VL: DIQMTQSPSSVSASVGDRLTIICRASQDINRWLAWYQQTPGNAPKLLILSATSLQSGVPSRFSGSGSGTDFTLTINSLQPEDFATYYCQQADSFPLTFGGGTKVEIK
fold difference in affinity vs original [fold]: 0.07

BINDER: C5A (XPA23) VL D92N (antibody, V domains shown) VH: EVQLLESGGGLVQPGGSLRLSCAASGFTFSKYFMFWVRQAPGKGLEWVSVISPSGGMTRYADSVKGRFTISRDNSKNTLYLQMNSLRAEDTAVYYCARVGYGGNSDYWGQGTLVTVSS VL: DIQMTQSPSSVSASVGDRLTIICRASQDINRWLAWYQQTPGNAPKLLIHSATSLQSGVPSRFSGSGSGTDFTLTINSLQPEDFATYYCQQANSFPLTFGGGTKVEIK
fold difference in affinity vs original [fold]: 0.67

Then there is this binder:
# lookup: fold difference in affinity vs original of C5A (XPA23) VL T52P (antibody, V domains shown) VH: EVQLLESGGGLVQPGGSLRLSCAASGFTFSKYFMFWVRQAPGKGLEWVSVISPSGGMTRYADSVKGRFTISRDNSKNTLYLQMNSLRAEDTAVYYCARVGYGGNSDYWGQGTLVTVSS VL: DIQMTQSPSSVSASVGDRLTIICRASQDINRWLAWYQQTPGNAPKLLIHSAPSLQSGVPSRFSGSGSGTDFTLTINSLQPEDFATYYCQQADSFPLTFGGGTKVEIK
1.08
